- TESTED_SYSTEM: PIK3CG (human) (UniProt P48736)
- Sequence (P48736 whole entry, looked up): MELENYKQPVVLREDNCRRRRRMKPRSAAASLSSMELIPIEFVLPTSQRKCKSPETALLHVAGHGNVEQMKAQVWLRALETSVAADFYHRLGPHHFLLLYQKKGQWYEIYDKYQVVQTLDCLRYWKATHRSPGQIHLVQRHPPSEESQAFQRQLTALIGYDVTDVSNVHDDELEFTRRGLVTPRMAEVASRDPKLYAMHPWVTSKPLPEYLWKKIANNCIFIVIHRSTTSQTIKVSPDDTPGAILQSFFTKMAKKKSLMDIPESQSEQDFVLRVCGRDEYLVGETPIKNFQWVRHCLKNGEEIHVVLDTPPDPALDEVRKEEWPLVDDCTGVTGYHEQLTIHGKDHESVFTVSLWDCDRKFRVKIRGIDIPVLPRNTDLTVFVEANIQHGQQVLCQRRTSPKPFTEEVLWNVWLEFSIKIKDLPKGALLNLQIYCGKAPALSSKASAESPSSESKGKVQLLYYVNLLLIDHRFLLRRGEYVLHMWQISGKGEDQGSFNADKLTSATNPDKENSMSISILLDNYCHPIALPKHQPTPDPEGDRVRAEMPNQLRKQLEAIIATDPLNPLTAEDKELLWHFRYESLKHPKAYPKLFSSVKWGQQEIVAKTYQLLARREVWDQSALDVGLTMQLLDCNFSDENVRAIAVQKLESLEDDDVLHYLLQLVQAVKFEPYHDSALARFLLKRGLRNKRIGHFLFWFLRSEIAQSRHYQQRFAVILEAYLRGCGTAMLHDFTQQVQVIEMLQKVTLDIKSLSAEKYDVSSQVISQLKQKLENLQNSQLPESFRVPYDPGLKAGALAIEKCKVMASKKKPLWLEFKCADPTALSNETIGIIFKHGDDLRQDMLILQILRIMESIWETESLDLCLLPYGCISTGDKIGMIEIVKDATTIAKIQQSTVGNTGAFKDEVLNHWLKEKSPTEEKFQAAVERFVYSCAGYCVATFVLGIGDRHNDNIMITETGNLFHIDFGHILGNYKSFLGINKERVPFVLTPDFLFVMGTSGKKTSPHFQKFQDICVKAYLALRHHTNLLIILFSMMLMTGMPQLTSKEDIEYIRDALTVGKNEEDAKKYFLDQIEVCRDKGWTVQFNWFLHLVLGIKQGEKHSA
MEASURED_PARAMETER: IC50

Request: IC50, test system PIK3CG (human) (UniProt P48736), entry Cc1cc(NCc2ccccc2)c2nc(N3CCOCC3)cc(=O)n2c1
> 10 µM

* * *

- TESTED_SYSTEM: PIK3CD (Human)
MEASURED_PARAMETER: IC50

Consider the compound O=c1c2c(Cl)cccc2nc(CSc2ncnc3[nH]cnc23)n1-c1ccccc1-c1ccccc1 and give its measured IC50.
50 nM
